Reference for the values: ChEMBL document CHEMBL4689842

# Test system: Fibroblast
# assay-protocol: Multiplex assay against human fibroblast
# Format: toxicity, cell-based
# condition-context: 12 h, 1 µM, compound concentration 1 uM, replicate 2
Classes by Population Fragmented Nuclei (%): lower range (below 9%), middle range (9% to below 50%), upper range (50% or more)

GET /class?item= O=C(Nc1ccc(-c2ccnc(Nc3ccc(N4CCOCC4)cc3)n2)cc1)[C@@H]1CCCN1
middle range

###

# Test system: U2OS
# assay-protocol: Multiplex assay against U2OS
# Format: toxicity, cell-based
# condition-context: human, 12 h, 1 µM, compound concentration 1 uM, replicate 1
As shown below, each of these molecules has a reported Population Healthy Nuclei (%) value.
Form entry: value (%) — number only.

Look over these answered cases.
# molecule, unit-tag, Population Healthy Nuclei (%)
data = [
    ("Cl.O=C(c1ccc(Nc2nccc(-c3cc4ccccc4s3)n2)cc1)N1CCC(N2CCCC2)CC1", "%", 80),
    ("O=C1NC(=O)C(c2cnc3ccccn23)=C1c1cn2c3c(cc(F)cc13)CN(C(=O)N1CCCCC1)CC2", "%", 74),
    ("NC(=O)c1cccc(-c2cc(Nc3ccc(OC(F)(F)F)cc3)ncn2)c1", "%", 89),
]

Report Population Healthy Nuclei (%) on U2OS for this entry: CN1CCC(=C2c3ccccc3CC(=O)c3sccc32)CC1.O=C(O)/C=C/C(=O)O [KETOTIFEN FUMARATE]
75

Please indicate recorded Population Healthy Nuclei (%) of CNc1cc(Oc2cc(C(=O)Nc3cc(N4CCN(C)CC4)cc(C(F)(F)F)c3)ccc2C)ncn1 measured with U2OS.
59

Find Population Healthy Nuclei (%) for CCn1c(=O)c(-c2ccc(-c3cncs3)cc2Cl)cc2cnc(Nc3ccc(N4CCN(C)CC4)cc3)nc21 on U2OS and write it down.
77

Please tell me the measured Population Healthy Nuclei (%) for CCOc1cc(C(=O)N2CCC(N3CCN(C)CC3)CC2)ccc1Nc1ncc2c(n1)N(C1CCCC1)c1ccccc1C(=O)N2C ; system: U2OS.
70
